Test system: KB-3-1
procedure text: Cytotoxic Profiling of Annotated Libraries Using Quantitative High-Throughput Screening (AID 1296008); also: nearly all actives have a fitted effect of over 60% in size; also: potency is read from the fitted curve at half-maximal effect
cond: Five cell lines viability, CellTiter-Glo ATP luminescence, 48-72 h
Inconclusive results are not listed. Activity calls are given as the source filed them. Calls follow the shape of the dose curve; as a rule, active = well fitted inhibition curve with a large enough effect; inconclusive = small, poorly fitted or top-dose-only effect; inactive = flat fitted curve, though single readings scatter.
metric name: Potency

// worked examples, Potency included
Please report the recorded Potency for CNC(=O)c1ccc2cc(C3(O)CCn4cncc43)ccc2c1 (stereo unspecified) .
inactive

Entry under review: CN(C)C1CCN(C(=O)c2ccc(NC(=O)Nc3nc(N4CCOCC4)nc(N4CCOCC4)n3)cc2)CC1 . Reported Potency?
50.2 nM (active)

# query: Potency of entry O=C(O)CCC1CCC(c2cc(F)ccc2F)(S(=O)(=O)c2ccc(Cl)cc2)CC1 (stereo unspecified)
inactive

I would be grateful if you could share the reported Potency for C[C@H](NC(=O)c1sccc1OCc1ccc(Cl)cc1)c1ccccc1 .
20900 nM (active)

What does the record list as Potency for COc1cc(N2CCC(N3CCN(C)CC3)CC2)ccc1Nc1ncc(Cl)c(Nc2ccccc2S(=O)(=O)C(C)C)n1 ?
920 nM (active)

Potency lookup needed for CC(=O)O[C@]1(C(C)=O)CC[C@@H]2[C@@H]3C[C@H](C)C4=CC(=O)CC[C@]4(C)[C@H]3CC[C@@]21C , thanks.
inactive

Would you kindly share the measured Potency for Nc1nc(F)nc2c1ncn2[C@@H]1O[C@H](COP(=O)(O)O)[C@@H](O)[C@H]1O ?
inactive

GET /values?readout=Potency&item= C[C@H](NC(=O)C(=O)Nc1ccccc1C(C)(C)C)C(=O)N[C@@H](CC(=O)O)C(=O)COc1c(F)c(F)cc(F)c1F
inactive

Hey, quick one: what's Potency for each of these?
1. O=c1c(-c2ccc(O)cc2)coc2cc(O[C@@H]3O[C@H](CO)[C@H](O)[C@H](O)[C@H]3O)ccc12
2. COc1cc2ncnc(-n3nc(-c4ccccn4)nc3N)c2cc1OC
3. CC(C)[C@H](CO)Nc1nc(Nc2ccc(C(=O)O)c(Cl)c2)c2ncn(C(C)C)c2n1
4. O=c1c(O)c(-c2ccc(O)cc2)oc2cc(O)cc(O)c12
5. Nc1ncnc2c1ncn2[C@@H]1O[C@H](CO)C[C@@H]1O
6. Clc1ccc(C(c2ccc(Cl)cc2)n2cc[n+](CC(OCc3ccc(Cl)cc3Cl)c3ccc(Cl)cc3Cl)c2)cc1 (stereo unspecified)
7. COc1cc2nc(-c3ccc(N4CCN(C)CC4)cc3)nc(NCCN3CCOCC3)c2cc1OC
8. O=c1cc(N2CCOCC2)oc2c(-c3cccc4c3sc3ccccc34)cccc12

1: inactive; 2: inactive; 3: inactive; 4: inactive; 5: inactive; 6: 18700 nM (active); 7: 66.2 nM (active); 8: inactive
